Literature roundup of UniProtKB O60674 data, read-out IC50.

Below are worked cases with known answers.
> print(dat)
                                    molecule    value.measured
 1  C[C@@H](O)c1nc2cnc3ccsc3c2n1[C@H]1CC[C@H](CC#N)OC1         ≤ 1000 nM
 2  CCCC1(n2cc(-c3nc(-c4cnn(C)c4)cc4nccn34)cn2)CN(S(=O)(=O)C(F)(F)F)C1      10 to 100 nM
 3  CCCS(=O)(=O)NC12CC(n3c([C@@H](C)O)nc4cnc5[nH]ccc5c43)(C1)C2           1110 nM
 4  Cn1cc(-c2cc3nccn3c(-c3cnn(C(CC#N)C(C)(C)C)c3)n2)cn1 (stereo not drawn)    100 to 1000 nM
 5  CN(c1ncnc2[nH]ccc12)C1CC2(C1)CN(C(=O)c1cccc(C(F)(F)F)c1)C2  1000 to 10000 nM
 6  N#Cc1cc(-c2ncnc(Nc3ccc(N4CCN(C5COC5)CC4)cc3)n2)ccc1O[C@@H]1CCNC1            961 nM
 7  COc1cnc(Nc2cccc(C(=O)N3[C@@H]4CC[C@H]3C[C@@H](O)C4)c2)nc1-c1cnn(C(CC#N)C2CC2)c1 (mixture of isomers)          < 100 nM
 8  N#CCC(CC1CCN(C(=O)c2ccc(F)cc2F)CC1)n1cc(-c2ccnc(Nc3ccc(-n4ccnc4)cc3)n2)cn1 (racemic)          < 100 nM
 9  CCN(CC)CCOc1ccc2cc1COC/C=C/CCOc1cc(ccc1OC)-c1ccnc(n1)N2         ≤ 1000 nM
10  CCN1CCN(Cc2ccc(Nc3nc4ccc(Oc5ccnc(NC(=O)C6CCOCC6)c5)cc4n3C)cc2C(F)(F)F)CC1           6000 nM

Prompt line: Check UniProtKB O60674 data and give IC50 for N#Cc1ccc(-c2nn(CCO)c3c2CN(c2ncnc4[nH]ccc24)CC3)cc1 .
Response line: 100 to 500 nM

Prompt line: Specify IC50 for CCC[C@@H](C)n1cc(-c2nc(-c3cnn(C(CO)CO)c3)cn3nccc23)cn1 , system UniProtKB O60674.
Response line: 10 to 100 nM

Prompt line: Tell me IC50 of CCCS(=O)(=O)N[C@H]1C[C@@H](Nc2c(-c3nc(C(=O)NC)cs3)cnc3[nH]ccc23)C1 when tested on UniProtKB O60674.
Response line: 10 to 100 nM

====

# literature pull: Tyrosine-protein kinase JAK2 (Homo sapiens) IC50

> print(dat)
                            molecule.smiles  value.measured
1  CC(C)n1cc(Nc2ncnc(-c3ccc(O[C@H]4CCN(C(=O)CO)C[C@H]4F)c(C#N)c3)n2)cn1           98 nM
2  N#Cc1cc(-c2ncnc(Nc3ccc(N4CCN(C5COC5)CC4)cc3)n2)ccc1O[C@@H]1CCN(C(=O)C2(O)CC2)C1       > 1000 nM
3  CC(=O)Nc1cc(Oc2ccc3nc(Nc4ccc(Cl)c(C(F)(F)F)c4)n4c3c2CCC4)ccn1      > 10000 nM
4  CCc1nc2cnc3ccsc3c2n1[C@H]1CC[C@H](CC#N)OC1       ≤ 1000 nM
5  CC(=O)Nc1cc(Oc2ccc3nc(Nc4ccc(OC5CCN(C)CC5)c(C(F)(F)F)c4)n4c3c2CCC4)ccn1         3680 nM
6  C1=C/COCc2cc(ccc2OCCN2CCCC2)Nc2nccc(n2)-c2cncc(c2)COC/1       ≤ 1000 nM
7  Cc1cc(Nc2cc3ncccc3c(N3CC4CCC(C3)N4CCC#N)n2)n[nH]1         6.27 nM
8  N#CCC1(n2cc(-c3ccnc(Nc4ccc(C(N)=O)cc4)n3)cn2)CCN(S(=O)(=O)C2CC2)CC1        < 100 nM

Prompt line: Report measured IC50 on Tyrosine-protein kinase JAK2 (Homo sapiens); entry: Cn1cc(-c2cn3nccc3c(-c3cnn(C4CCCCCC4)c3)n2)cn1
Response line: 100 to 1000 nM

Prompt line: Report IC50 under test system Tyrosine-protein kinase JAK2 (Homo sapiens) for CCn1cc(-c2cc3nccn3c(-c3cnn(C4(CC#N)CN(CC(F)(F)F)C4)c3)n2)cn1 .
Response line: 10 to 100 nM

Prompt line: Give IC50 only, for N#CCC1(n2cc(-c3ccnc(Nc4ccc(N5CCOCC5)cc4)n3)cn2)CCN(C(=O)c2ccno2)CC1 , using Tyrosine-protein kinase JAK2 (Homo sapiens) data.
Response line: < 100 nM
